Give IC50 for every item shown.
# target entity: NACHT, LRR and PYD domains-containing protein 3 (Mus musculus, UniProt Q8R4B8)
# Sequence (Q8R4B8 whole entry, the tested form may be a part): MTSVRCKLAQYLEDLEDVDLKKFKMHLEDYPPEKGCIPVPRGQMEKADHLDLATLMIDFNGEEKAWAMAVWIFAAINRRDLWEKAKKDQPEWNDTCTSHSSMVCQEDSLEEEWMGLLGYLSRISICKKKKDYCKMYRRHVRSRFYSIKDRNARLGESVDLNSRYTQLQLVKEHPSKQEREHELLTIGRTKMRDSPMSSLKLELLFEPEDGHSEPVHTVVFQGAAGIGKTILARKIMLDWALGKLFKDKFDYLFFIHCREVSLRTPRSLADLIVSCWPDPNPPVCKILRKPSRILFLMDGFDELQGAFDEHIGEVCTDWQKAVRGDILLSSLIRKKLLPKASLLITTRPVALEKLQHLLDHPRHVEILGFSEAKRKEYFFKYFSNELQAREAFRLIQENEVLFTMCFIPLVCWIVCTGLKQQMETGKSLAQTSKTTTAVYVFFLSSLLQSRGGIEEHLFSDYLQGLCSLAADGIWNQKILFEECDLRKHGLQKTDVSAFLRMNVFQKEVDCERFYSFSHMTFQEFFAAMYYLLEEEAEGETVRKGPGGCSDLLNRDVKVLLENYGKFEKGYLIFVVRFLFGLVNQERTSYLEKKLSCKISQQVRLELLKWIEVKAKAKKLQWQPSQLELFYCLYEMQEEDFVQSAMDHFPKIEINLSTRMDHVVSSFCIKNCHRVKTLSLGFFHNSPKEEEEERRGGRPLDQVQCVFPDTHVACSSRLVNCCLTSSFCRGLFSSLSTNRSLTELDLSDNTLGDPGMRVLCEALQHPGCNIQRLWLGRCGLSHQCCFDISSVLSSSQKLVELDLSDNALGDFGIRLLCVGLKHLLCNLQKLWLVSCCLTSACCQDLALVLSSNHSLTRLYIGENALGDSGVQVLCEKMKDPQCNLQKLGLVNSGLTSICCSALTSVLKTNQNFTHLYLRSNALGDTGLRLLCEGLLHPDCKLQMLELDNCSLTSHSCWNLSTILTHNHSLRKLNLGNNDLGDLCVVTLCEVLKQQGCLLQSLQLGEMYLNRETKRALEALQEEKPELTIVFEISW
# protocol summary: Inhibition of NLRP3 inflammasome activation in LPS/nigericin-treated C57BL/6 mouse bone marrow-derived macrophages assessed as reduction in IL-1beta secretion preincubated for 3 hrs with LPS and for 30 mins with compound prior to nigericin addition and measured after 30 mins by ELISA
Record the value in nM, omitting the unit from your answer.

Query :: Request the reported IC50 associated with COc1cc(/C=C/c2ccc(NC(=O)c3ccco3)cc2)c(/C=C/[N+](=O)[O-])c(OC)c1
Result :: 1230

Query :: Recorded IC50 for COc1cc(/C=C/c2ccc(NC(=O)c3ccccc3)cc2)c(/C=C/[N+](=O)[O-])c(OC)c1 , please?
Result :: 1560

Query :: IC50 for COc1cc(/C=C/c2ccc(NC(=O)c3ccc(F)cc3)cc2)c(/C=C/[N+](=O)[O-])c(OC)c1 ?
Result :: 9340

* * *

# protocol summary: Metabolic stability in human hepatocytes assessed as intrinsic clearance by LC-MS/MS analysis
# Format: ADME, cell-based, Hepatocyte
# details: read-out: CLH
readout label: CLint scaled
Please make sure the unit comes right after the number.

Query :: Report CLint scaled for COc1cc(/C=C/c2ccc(NC(=O)c3ccco3)cc2)c(/C=C/[N+](=O)[O-])c(OC)c1 please.
Result :: 0.444 L/h/kg

Query :: Which CLint scaled value is on record for COc1cc(/C=C/c2ccc(NC(=O)C3CC3)cc2)c(/C=C/[N+](=O)[O-])c(OC)c1 ?
Result :: 0.702 L/h/kg
